Sourced from paper PMC11345841

Biological target: JAK1(JH2domain-pseudokinase) (Homo sapiens)
Construct: JAK1(JH2domain-pseudokinase); purchased Eurofins DiscoverX KINOMEscan (scanTK)
Sequence (P23458 583-855 limits assumed): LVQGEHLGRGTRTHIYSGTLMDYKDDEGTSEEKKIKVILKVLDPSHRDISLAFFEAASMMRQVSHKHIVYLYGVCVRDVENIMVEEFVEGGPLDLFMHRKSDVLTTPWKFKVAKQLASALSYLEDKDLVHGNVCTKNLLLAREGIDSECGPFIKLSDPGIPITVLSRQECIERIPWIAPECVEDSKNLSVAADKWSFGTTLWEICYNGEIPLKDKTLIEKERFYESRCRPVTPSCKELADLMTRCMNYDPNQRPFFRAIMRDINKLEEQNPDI
Test: KINOMEscan ScanTK
Type: binding
Settings: @1000nM
REPORTED_METRIC: %Control difference versus compound Ib at 1 µM (%)

| COMPOUND | ASSAY_RESULT |
| --- | --- |
| CCOC(=O)c1cnc(S(C)(=O)=O)nc1N1CCC[C@@H](n2nc(-c3ccc(Oc4ccccc4)cc3)c3c(N)ncnc32)C1 | 4 |
| COC(=O)c1cnc(S(C)(=O)=O)nc1N1CCCC(n2nc(-c3ccc(Oc4ccccc4)cc3)c3c(N)ncnc32)C1 (stereo not shown) | 4 |
| CNC(=O)c1cnc(S(C)(=O)=O)nc1N1CCCC(n2nc(-c3ccc(Oc4ccccc4)cc3)c3c(N)ncnc32)C1 (stereo not shown) | 5 |
| Cc1cnc(S(C)(=O)=O)nc1N1CCCC(n2nc(-c3ccc(Oc4ccccc4)cc3)c3c(N)ncnc32)C1 (stereo not shown) | 5 |
